# protocol: in vitro
# condition-context: human, MDA-MB-231 breast adenocarcinoma cells
# IC50 at 72 h annotations
Write the number in µM without appending the unit.

1) NNC(=O)OCCNC(=O)CCCCC1CCSS1 (centres unmarked); 536

--- query ---
### Prompt Would you kindly share the measured IC50 at 72 h for NNC(=O)OCCOCCOCCOCCNC(=O)CCCCC1CCSS1 (centres unmarked) ?
### Response 576

====

# IC50 at 72 h annotations
# protocol: in vitro
# condition-context: human, MDA-MB-453 breast adenocarcinoma cells
Write the number in µM without appending the unit.

### Prompt Would you kindly share the measured IC50 at 72 h for NNC(=O)OCCOCCOCCNC(=O)CCCCC1CCSS1 (stereo not shown) ?
### Response 333

### Prompt Thanks! And NNC(=O)OCCOCCOCCOCCNC(=O)CCCCC1CCSS1 (stereo not shown) ?
### Response 342

### Prompt Thanks! And NNC(=O)OCCOCCNC(=O)CCCCC1CCSS1 (stereo not shown) ?
### Response 299

### Prompt Thanks! And NNC(=O)OCCOCCOCCOCCOCCOCCNC(=O)CCCCC1CCSS1 (stereo not shown) ?
### Response 460

### Prompt Thanks! And NNC(=O)OCCOCCOCCOCCNC(=O)CCCCCS ?
### Response 130

### Prompt Thanks! And NNC(=O)OCCOCCNC(=O)CCCCCS ?
### Response 128

### Prompt Thanks! And NNC(=O)OCCNC(=O)CCCCC1CCSS1 (stereo not shown) ?
### Response 432

====

# protocol: in vitro
# condition-context: human, MCF7 breast adenocarcinoma cells
outcome-measure: IC50 at 72 h (µM)
Write the number in µM without appending the unit.

Solved entries:
1. NNC(=O)OCCOCCOCCOCCNC(=O)CCCCC1CCSS1 (centres unmarked); 569
2. NNC(=O)OCCOCCNC(=O)CCCCC1CCSS1 (centres unmarked); 692

--- query ---
### Prompt Would you kindly share the measured IC50 at 72 h for NNC(=O)OCCNC(=O)CNC(=O)CCCCC1CCSS1 (centres unmarked) ?
### Response 501

====

# protocol: in vitro
# condition-context: human, MDA-MB-231 breast adenocarcinoma cells
# IC50 at 72 h annotations
Write the number in µM without appending the unit.

1. NNC(=O)OCCOCCOCCOCCNC(=O)CCCCCS; 533
2. NNC(=O)OCCOCCOCCNC(=O)CCCCC1CCSS1 (centres unmarked); 454
3. NNC(=O)OCCNC(=O)CNC(=O)CNC(=O)CNC(=O)CCCCC1CCSS1 (centres unmarked); 428

### Prompt Would you kindly share the measured IC50 at 72 h for NNC(=O)OCCOCCNC(=O)CCCCCS ?
### Response 559

====

# protocol: Cytotoxicity assay of Au/LKs/Dox complexes (MTS, 72 hours)
# Format: cell-based
# condition-context: human, H184B5F5/M10 mammary epithelial cells; M10, 72 hrs; read-out: IC50 value for complex cytotoxicity
# Description: We examined the cytotoxicity of Au/LKs/Dox complexes and the IC50 value was calculated. […] The CellTiter 96® AQueous One Solution Cell Proliferation Assay (MTS) reagent was purchased from Promega (Madison, Wis., USA) and the assay was performed according to the manufacturer's instructions. Absorbance was measured at 490 nm using a microplate reader (Bio-tek, Powerwave X340, Winooski, Vt., USA).
outcome-measure: IC50 at 72 h (nM)
Write the number in nM without appending the unit.

### Prompt Would you kindly share the measured IC50 at 72 h for COc1cccc2c1C(=O)c1c(O)c3c(c(O)c1C2=O)C[C@@](O)(C(=O)CO)C[C@@H]3O[C@H]1C[C@H](N)[C@H](O)[C@H](C)O1 ?
### Response 140

====

# protocol: in vitro
# condition-context: human, MCF7 breast adenocarcinoma cells
# IC50 at 72 h annotations
Write the number in µM without appending the unit.

Solved entries:
1) NNC(=O)OCCOCCOCCOCCOCCOCCNC(=O)CCCCC1CCSS1 (centres unmarked); 419
2) NNC(=O)OCCNC(=O)CCCCC1CCSS1 (centres unmarked); 730

### Prompt Would you kindly share the measured IC50 at 72 h for NNC(=O)OCCOCCOCCNC(=O)CCCCC1CCSS1 (centres unmarked) ?
### Response 538

====

# protocol: in vitro
# condition-context: human, H184B5F5/M10 mammary epithelial cells
Assign labels as follows, please: Fulfilled for IC50 at 72 h below 600 µM; Not fulfilled for IC50 at 72 h equal to or exceeding 600 µM.

Answered cases to consult:
1. NNC(=O)OCCOCCNC(=O)CCCCCS; Not fulfilled
2. NNC(=O)OCCOCCOCCNC(=O)CCCCC1CCSS1 (stereo not shown); Fulfilled
3. NNC(=O)OCCOCCOCCOCCNC(=O)CCCCCS; Not fulfilled
4. NNC(=O)OCCNC(=O)CNC(=O)CNC(=O)CCCCC1CCSS1 (stereo not shown); Not fulfilled
5. NNC(=O)OCCNC(=O)CNC(=O)CCCCC1CCSS1 (stereo not shown); Fulfilled

### Prompt Quick check: IC50 at 72 h of NNC(=O)OCCNC(=O)CCCCC1CCSS1 (stereo not shown) under 600 µM?
### Response Not fulfilled

### Prompt Thanks! And NNC(=O)OCCOCCOCCOCCOCCOCCNC(=O)CCCCC1CCSS1 (stereo not shown) ?
### Response Fulfilled

### Prompt Thanks! And NNC(=O)OCCOCCOCCOCCNC(=O)CCCCC1CCSS1 (stereo not shown) ?
### Response Fulfilled

====

# IC50 at 72 h annotations
# protocol: in vitro
# condition-context: human, MDA-MB-231 breast adenocarcinoma cells
Write the number in µM without appending the unit.

1) NNC(=O)OCCNC(=O)CNC(=O)CCCCC1CCSS1 (stereo not drawn); 474
2) NNC(=O)OCCOCCNC(=O)CCCCC1CCSS1 (stereo not drawn); 529

### Prompt Would you kindly share the measured IC50 at 72 h for NNC(=O)OCCOCCOCCOCCOCCOCCNC(=O)CCCCC1CCSS1 (stereo not drawn) ?
### Response 484

====

# protocol: in vitro
# condition-context: human, MDA-MB-453 breast adenocarcinoma cells
outcome-measure: IC50 at 72 h

1. NNC(=O)OCCNC(=O)CNC(=O)CNC(=O)CNC(=O)CCCCC1CCSS1 (stereo not drawn); > 800 µM
2. NNC(=O)OCCNC(=O)CNC(=O)CCCCC1CCSS1 (stereo not drawn); > 800 µM

--- query ---
### Prompt Would you kindly share the measured IC50 at 72 h for NNC(=O)OCCNC(=O)CNC(=O)CNC(=O)CCCCC1CCSS1 (stereo not drawn) ?
### Response > 800 µM
